- Test system: E. coli ATCC25922
- assay-name: MIC determination, broth microdilution (CLSI)
- Assay type: cell-based
- condition-info: Escherichia coli, ATCC25922, strain 1
readout: MIC (µg/mL)
Respond with the bare value in µg/mL.

Some solved entries appear below for comparison.
{"compound": "N=C(N)c1ccc(OCCO/N=C(\\C(=O)NC2C(=O)N(OS(=O)(=O)O)C23CCCC3)c2csc(N)n2)cc1 (stereo not shown) [Example 16]", "units-label": "µg/mL", "numeric-readout": 1}
{"compound": "C[C@H]1[C@H](NC(=O)/C(=N\\OCCOc2cc(C(=N)N)n(C)n2)c2csc(N)n2)C(=O)N1S(=O)(=O)O [Example 72]", "units-label": "µg/mL", "numeric-readout": 0.5}
{"compound": "C[C@H]1[C@H](NC(=O)/C(=N\\OCCOc2ccc(C(=N)N)cc2F)c2csc(N)n2)C(=O)N1S(=O)(=O)O [Example 19]", "units-label": "µg/mL", "numeric-readout": 0.5}

With those in mind, consider the next compound.
E. coli ATCC25922 data for CC(C)NC(=N)c1ccc(OCCO/N=C(\C(=O)N[C@@H]2C(=O)N(S(=O)(=O)O)[C@H]2C)c2csc(N)n2)cc1 [Example 54] ; its MIC: 0.5

====

- Tested on: E. cloacae 34654
- assay-name: MIC determination, broth microdilution (CLSI)
- Format: cell-based
- condition-info: Enterobacter cloacae, 34654, strain 3
readout: MIC (µg/mL)
Respond with the bare value in µg/mL.

{"molecule": "C[C@H]1[C@H](NC(=O)/C(=N\\OCCOc2cc(C(=N)N)n(C)n2)c2csc(N)n2)C(=O)N1S(=O)(=O)O [Example 72]", "tgt": "E. cloacae 34654", "MIC [µg/mL]": 1}
{"molecule": "CC1(C)[C@H](NC(=O)/C(=N\\O[C@@H](COc2ccc(C(=N)NC3CNC3)cc2)C(=O)O)c2csc(N)n2)C(=O)N1OS(=O)(=O)O [Example 107]", "tgt": "E. cloacae 34654", "MIC [µg/mL]": 0.25}
{"molecule": "C[C@H]1[C@H](NC(=O)/C(=N\\OCCOc2nc(C(=N)N)cs2)c2csc(N)n2)C(=O)N1S(=O)(=O)O [Example 31]", "tgt": "E. cloacae 34654", "MIC [µg/mL]": 0.25}
{"molecule": "C[C@H]1[C@H](NC(=O)/C(=N\\OCCOc2ccc(C(=N)N)cn2)c2csc(N)n2)C(=O)N1S(=O)(=O)O [Example 5]", "tgt": "E. cloacae 34654", "MIC [µg/mL]": 0.125}

With those in mind, consider the next molecule.
// MIC lookup, molecule = CC1(C)[C@H](NC(=O)/C(=N\OCCOc2ccc(C(=N)NC3CNNC3)cc2)c2csc(N)n2)C(=O)N1OS(=O)(=O)O [Example 92] , result: 1

====

# MIC per record follows
- Test system: E. coli ATCC25922
- assay-name: MIC determination, broth microdilution (CLSI)
- Assay type: cell-based
- condition-info: Escherichia coli, ATCC25922, strain 1
Respond with the bare value in µg/mL.

Some solved entries appear below for comparison.
{"chemical-structure": "C[C@H]1[C@H](NC(=O)/C(=N\\OCCOc2ccc(C(=N)N)cc2CO)c2csc(N)n2)C(=O)N1S(=O)(=O)O", "readout": "MIC", "numeric-readout": 1}
{"chemical-structure": "Cc1cc(OCCO/N=C(\\C(=O)N[C@@H]2C(=O)N(S(=O)(=O)O)[C@H]2C)c2csc(N)n2)ccc1C(=N)N", "readout": "MIC", "numeric-readout": 0.5}
{"chemical-structure": "CC1(C)[C@H](NC(=O)/C(=N\\OCCOc2ccc(C(=N)NCCCN)cc2)c2csc(N)n2)C(=O)N1OS(=O)(=O)O", "readout": "MIC", "numeric-readout": 0.125}

// MIC lookup, compound = CC1(C)[C@H](NC(=O)/C(=N\OCCOc2ccnc(C(=N)N)c2)c2csc(N)n2)C(=O)N1OS(=O)(=O)O , result: 0.5

====

- System: P. aeruginosa 2297 (AmpC wt)
- assay-name: MIC determination, broth microdilution (CLSI)
- Type: cell-based
- condition-info: Pseudomonas aeruginosa, strain 7
# MIC per record follows
Respond with the bare value in µg/mL.

{"chemical-structure": "C[C@H]1[C@H](NC(=O)/C(=N\\OCCOc2ccc(C(=N)N)cc2F)c2csc(N)n2)C(=O)N1S(=O)(=O)O", "MIC (µg/mL)": 16}
{"chemical-structure": "CC(=N)N1CC[C@H](NC(=N)c2ccc(OCCO/N=C(\\C(=O)N[C@@H]3C(=O)N(OS(=O)(=O)O)C3(C)C)c3csc(N)n3)cc2)C1", "MIC (µg/mL)": 8}
{"chemical-structure": "N=C(N)c1ccc(OCCO/N=C(\\C(=O)N[C@@H]2C(=O)N(S(=O)(=O)O)[C@@H]2C(N)=O)c2csc(N)n2)cc1", "MIC (µg/mL)": 32}
{"chemical-structure": "CNCCNC(=N)c1ccc(OC[C@H](O/N=C(\\C(=O)N[C@@H]2C(=O)N(OS(=O)(=O)O)C2(C)C)c2csc(N)n2)C(=O)O)cc1", "MIC (µg/mL)": 2}
{"chemical-structure": "CC1(C)[C@H](NC(=O)/C(=N\\O[C@@H](COc2ccc(C(=N)NC3CNC3)cc2)C(=O)O)c2csc(N)n2)C(=O)N1OS(=O)(=O)O", "MIC (µg/mL)": 1}

// MIC lookup, molecule = C[C@H]1[C@H](NC(=O)/C(=N\OCCOc2ccc(C(=N)NO)cc2)c2csc(N)n2)C(=O)N1S(=O)(=O)O , result: 16

====

# MIC per record follows
- System: strain 19
- assay-name: MIC determination, broth microdilution (CLSI)
- Format: cell-based

Some solved entries appear below for comparison.
{"molecule": "N=C(N)c1ccc(OCCO/N=C(\\C(=O)NC2C(=O)N(OS(=O)(=O)O)C23CCCC3)c2csc(N)n2)cc1 (stereo not shown)", "tgt": "strain 19", "MIC": "1 µg/mL"}
{"molecule": "CC1(C)[C@H](NC(=O)/C(=N\\OCCOc2ccc(C(=N)NCCN)cc2)c2csc(N)n2)C(=O)N1OS(=O)(=O)O", "tgt": "strain 19", "MIC": "0.125 µg/mL"}
{"molecule": "CC1(C)[C@H](NC(=O)/C(=N\\OCCOc2cc(C(=N)N)ccn2)c2csc(N)n2)C(=O)N1OS(=O)(=O)O", "tgt": "strain 19", "MIC": "0.5 µg/mL"}

With those in mind, consider the next molecule.
// MIC lookup, molecule = C[C@H]1[C@H](NC(=O)/C(=N\OCCOc2ccc(C(=N)NO)cc2)c2csc(N)n2)C(=O)N1S(=O)(=O)O , result: 0.5 µg/mL

====

# log10 MIC per record follows
- Test system: strain 20
- assay-name: MIC determination, broth microdilution (CLSI)
- Type: cell-based
Form field - Quantity: MIC; Unit: µg/mL; Scale: log10

Some solved entries appear below for comparison.
{"chemical-structure": "C[C@H]1[C@H](NC(=O)/C(=N\\OCCCOc2ccc(C(=N)N)cc2)c2csc(N)n2)C(=O)N1S(=O)(=O)O", "log10 MIC": 0.30}
{"chemical-structure": "Cc1cc(OCCO/N=C(\\C(=O)N[C@@H]2C(=O)N(OS(=O)(=O)O)C2(C)C)c2csc(N)n2)ccc1C(=N)N", "log10 MIC": -0.30}
{"chemical-structure": "C[C@H]1[C@H](NC(=O)/C(=N\\OCCOc2ccc(C(=N)N)cc2)c2csc(N)n2)C(=O)N1S(=O)(=O)O", "log10 MIC": -0.90}
{"chemical-structure": "CC1(C)[C@H](NC(=O)/C(=N\\OCCOc2ccc(C(=N)NCCNC=N)cc2)c2csc(N)n2)C(=O)N1OS(=O)(=O)O", "log10 MIC": -0.60}
{"chemical-structure": "C[C@H]1[C@H](NC(=O)/C(=N\\OCCOc2ccc(C(=N)N)cc2Cl)c2csc(N)n2)C(=O)N1S(=O)(=O)O", "log10 MIC": 0.30}
{"chemical-structure": "C[C@H]1[C@H](NC(=O)/C(=N\\OCCOc2ccc(C(=N)N)cc2)c2csc(N)n2)C(=O)N1OCS(=O)(=O)O", "log10 MIC": -0.60}
{"chemical-structure": "CC1(C)[C@H](NC(=O)/C(=N\\OCCOc2ccc(C(=N)NC3CCNCC3)cc2)c2csc(N)n2)C(=O)N1OS(=O)(=O)O", "log10 MIC": -0.90}
{"chemical-structure": "C[C@H]1[C@H](NC(=O)/C(=N\\OCCOc2ccc(C(=N)N)c(O)c2)c2csc(N)n2)C(=O)N1S(=O)(=O)O", "log10 MIC": -0.90}
{"chemical-structure": "CC1(C)[C@H](NC(=O)/C(=N\\OCCOc2ccc(C(=N)N)nc2)c2csc(N)n2)C(=O)N1OS(=O)(=O)O", "log10 MIC": -0.60}
{"chemical-structure": "C[C@H]1[C@H](NC(=O)/C(=N\\OCCOc2ccc(C(=N)N)nn2)c2csc(N)n2)C(=O)N1S(=O)(=O)O", "log10 MIC": -0.60}

With those in mind, consider the next compound.
// log10 MIC lookup, compound = CC1(C)[C@H](NC(=O)/C(=N\OCCSc2ccc(C(=N)N)cc2)c2csc(N)n2)C(=O)N1OS(=O)(=O)O , result: 0.00
